Molecular target: UniProt Q16548
Sequence (Q16548 1-151): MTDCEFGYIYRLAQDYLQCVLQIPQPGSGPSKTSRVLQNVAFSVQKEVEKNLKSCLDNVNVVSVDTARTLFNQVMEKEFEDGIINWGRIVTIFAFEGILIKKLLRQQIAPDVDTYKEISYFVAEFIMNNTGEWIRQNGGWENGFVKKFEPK
Item-by-item account of Ki
The figure you give is taken to be in µM; do not add the unit.

INSERT INTO results (entry_smiles, recorded_metric, value_units, value) VALUES
  ('O=C(CSc1nnc(-c2ccco2)c(-c2ccco2)n1)Nc1cccc(C(F)(F)F)c1', 'Ki', 'µM', 10.4),
  ('c1ccc(CCCCSc2nnc(-c3ccco3)c(-c3ccco3)n2)cc1', 'Ki', 'µM', 0.7),
  ('O=C(CSc1nnc(-c2ccco2)c(-c2ccco2)n1)Nc1ccccc1', 'Ki', 'µM', 4.9);

Next item in the queue.
Measured Ki of c1ccc(CCCSc2nnc(-c3ccco3)c(-c3ccco3)n2)cc1 : 1.6

----------
Item-by-item account of pIC50
target: Mcl-1 protein (Homo sapiens); construct: human Mcl-1 (residues 171–323); His tag (pHis-TEV vector) (N, cleaved yes); made in house; host or cells: E. coli BL21 (DE3); experiment: FP-based competitive binding assay with fluorescent labelled Bid BH3 peptide; conditions: competition with fluorescent Bid probe 2 nM, 20 nM Mcl-1 for purchased compounds, 10 nM for synthesized library
pIC50: −log10 of the molar value.

Answered examples (2):
INSERT INTO results (entry_smiles, target_under_test, value) VALUES
  ('O=C(CSc1nnc(-c2ccco2)c(-c2ccco2)n1)Nc1cccc(-c2ccccc2)c1', 'Mcl-1 protein (Homo sapiens)', 5.39),
  ('Nc1ccc(NC(=O)CSc2nnc(-c3ccco3)c(-c3ccco3)n2)cc1', 'Mcl-1 protein (Homo sapiens)', '< 4.00');

Measured pIC50 of O=C(Nc1ccccc1)c1ccc2nc(-c3ccco3)c(-c3ccco3)nc2c1 : < 4.30

----------
target: Mcl-1 protein (Homo sapiens)
Item-by-item account of Ki
The figure you give is taken to be in µM; do not add the unit.

INSERT INTO results (entry_smiles, recorded_metric, value) VALUES
  ('O=C(CSc1nnc(-c2ccco2)c(-c2ccco2)n1)Nc1cccc(C(F)(F)F)c1', 'Ki', 1.2);

Form field Ki for item O=C(CSc1nnc(-c2ccco2)c(-c2ccco2)n1)Nc1ccc(Cc2ccccc2)cc1 on Mcl-1 protein (Homo sapiens): 0.6

Form field Ki for item CCc1ccc(NC(=O)CSc2nnc(-c3ccco3)c(-c3ccco3)n2)cc1 on Mcl-1 protein (Homo sapiens): 1.2

Form field Ki for item CCc1cccc(NC(=O)CSc2nnc(-c3ccco3)c(-c3ccco3)n2)c1 on Mcl-1 protein (Homo sapiens): 1.2

----------
Item-by-item account of pIC50
molecular target: Mcl-1 protein (Homo sapiens, UniProt Q07820); construct: human Mcl-1 (residues 171–323); His tag (pHis-TEV vector) (N, cleaved yes); made in house; host or cells: E. coli BL21 (DE3); assay: FP-based competitive binding assay with fluorescent labelled Bid BH3 peptide; conditions: competition with fluorescent Bid probe 2 nM, 20 nM Mcl-1 for purchased compounds, 10 nM for synthesized library
Sequence (Q07820 171-323): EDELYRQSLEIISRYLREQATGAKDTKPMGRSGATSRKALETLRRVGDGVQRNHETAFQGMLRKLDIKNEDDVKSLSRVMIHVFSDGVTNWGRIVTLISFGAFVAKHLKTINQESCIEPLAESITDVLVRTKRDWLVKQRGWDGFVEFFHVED
pIC50: −log10 of the molar value.

Answered examples (2):
INSERT INTO results (entry_smiles, target_under_test, value) VALUES
  ('O=C(CSc1nnc(-c2ccccn2)c(-c2ccccn2)n1)Nc1ccccc1', 'Mcl-1 protein (Homo sapiens, UniProt Q07820)', '< 4.30'),
  ('O=C(CSc1nnc(-c2ccccc2)c(-c2ccccc2)n1)Nc1ccccc1', 'Mcl-1 protein (Homo sapiens, UniProt Q07820)', '< 4.70');

Next item in the queue.
Measured pIC50 of O=C(CSc1nnc(-c2cccs2)c(-c2cccs2)n1)Nc1ccccc1 : < 4.00
